Source of measurements: PubChem BioAssay (Tox21)

Assay: qHTS assay to identify small molecule antagonists of the estrogen receptor beta (ER-beta) signaling pathway - cell viability counter screen (AID 1259382); further: nearly all actives have a fitted effect of over 55% in size
Conditions: ER-beta-UAS-bla HEK293T viability, CellTiter-Glo luminescence, 16 h; series mostly up to 92.4 µM
Records with an inconclusive call do not appear. Activity calls are given as the source filed them. The call rests on the fitted dose curve; in most records, active means well fitted cell-killing curve with a large enough effect in the repeat runs; inconclusive means weak or mixed curves; inactive means flat fitted curve, though single readings scatter.
Response enum: active, inactive

{"Molecular String": "CCCSS/C(CCO)=C(\\C)N(C=O)Cc1cnc(C)nc1N", "Label Class": "inactive"}
{"Molecular String": "O=C1NCN(c2ccccc2)C12CCN(CCCC(c1ccc(F)cc1)c1ccc(F)cc1)CC2", "Label Class": "active"}
{"Molecular String": "[O]=[Zr]", "Label Class": "inactive"}
{"Molecular String": "CC(C)(C)c1cc(CCC(=O)NCCCCCCNC(=O)CCc2cc(C(C)(C)C)c(O)c(C(C)(C)C)c2)cc(C(C)(C)C)c1O", "Label Class": "inactive"}

Test call for this compound, please: `NCCCCCCNCCCCCCN` inactive

Test call for this compound, please: `CC1=CCC(=O)O1` inactive

Test call for this compound, please: `ClC/C=C\CCl` inactive

Test call for this compound, please: `Cc1cc2c(C(C)C)c(O)c(O)c(C=O)c2c(O)c1-c1c(C)cc2c(C(C)C)c(O)c(O)c(C=O)c2c1O` active
